The reported numbers originate from PubChem BioAssay (NCI).

- Test system: DU-145 prostate
- assay: NCI-60 one-dose screen, 48 h (100 = growth as untreated, 0 = no growth, -100 = all killed)
- recorded-conditions: 10 µM
This is part of a sample that, as a whole, favours compounds with a hit. Of some 83,000 tested, about 20% had one in any assay. Activity calls are given as the source filed them. How the source made its calls: active means growth percent below 10; inactive means the rest.
Known growth of a selection of compounds
readout-type: growth

| compound | result |
| --- | --- |
| COc1cc(C(=C2O[C@@H]([C@H]3COC(C)(C)O3)[C@H]3OC(C)(C)O[C@@H]23)c2cc(OC)c(OC)c(OC)c2)cc(OC)c1OC | 112% (inactive) |
| CO/N=C(/C(=O)NC1C(=O)N2C(C(=O)O)=C(COC(N)=O)CSC12)c1ccco1 (centres undefined) | 127% (inactive) |
| C#Cc1ccc(-n2c(/C=C/c3ccc4ccccc4c3)nc3ncccc3c2=O)cc1 | 60.1% (inactive) |
| O=C(Nc1cccc(-n2cc(-c3ccncc3)c(-c3ccc(O)c(Cl)c3)n2)c1)c1ccc(N2CCOCC2)c(C(F)(F)F)c1 | 62.7% (inactive) |
